All figures here come from paper PMC9090415.

- measured_target: P. falciparum apicoplast DNA polymerase (Pf-apPOL) (Plasmodium falciparum)
- Sequence (Q8ILY1 entry or part of it): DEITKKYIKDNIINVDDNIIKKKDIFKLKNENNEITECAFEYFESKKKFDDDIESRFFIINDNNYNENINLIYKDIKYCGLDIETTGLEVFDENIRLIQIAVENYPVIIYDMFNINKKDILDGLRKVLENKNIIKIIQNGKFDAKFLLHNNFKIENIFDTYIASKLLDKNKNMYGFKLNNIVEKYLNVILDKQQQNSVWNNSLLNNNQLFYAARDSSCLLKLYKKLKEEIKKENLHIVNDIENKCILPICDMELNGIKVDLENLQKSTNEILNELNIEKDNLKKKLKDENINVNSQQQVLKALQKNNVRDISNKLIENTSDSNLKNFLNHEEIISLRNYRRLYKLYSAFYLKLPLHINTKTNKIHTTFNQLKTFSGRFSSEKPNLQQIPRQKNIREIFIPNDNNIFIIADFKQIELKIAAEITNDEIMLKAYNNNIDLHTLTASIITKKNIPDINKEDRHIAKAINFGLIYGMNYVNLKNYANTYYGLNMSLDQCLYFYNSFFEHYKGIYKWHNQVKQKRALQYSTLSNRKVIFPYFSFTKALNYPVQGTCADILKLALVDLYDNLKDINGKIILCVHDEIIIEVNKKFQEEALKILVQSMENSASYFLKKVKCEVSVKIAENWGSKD
- assay: Fluorescence-based high-throughput DNA polymerase assay (molecular beacon), primary screen and dose-response;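 further: compound concentration given in µM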
- Format: biochemical
- test_context: DRC-2, 40', concentration 10

compound: COc1cc(/C=C2\S/C(=N/C(C)=O)NC2=O)cc(Br)c1OCC(=O)O
% inhibition Apol 40': 13%
//
compound: O=c1cc(-c2ccccc2)oc2c(O)c(O)ccc12
% inhibition Apol 40': 21%
//
compound: CCOc1ccccc1-c1nc(-c2ccc(=O)[nH]c2)no1 [Molecule 76, CCOc1ccccc1c1onc(n1)c1ccc(=O)[nH]c1]
% inhibition Apol 40': 18%
//
compound: CC1=NNC(=O)C1Oc1ccc(Cl)cc1Cl (stereo not shown)
% inhibition Apol 40': 15%
